Exercise: for every item that follows, state its recorded GI50.
System: SK-OV-3 ovarian
Assay: NCI tumour cell line growth inhibition, 48 h

Check the records and state GI50 for Fc1ccc(Nc2nc(NCCNc3ccnc4cc(Cl)ccc34)nc(N3CCOCC3)n2)cc1 11.9 µM

Let me know recorded GI50 for Cc1c(C)c2ccc(OC/C=C3\CCC(=O)O3)cc2oc1=O , thanks. 26.5 µM

Return the recorded GI50 value; entry: C=C[C@]1(C)C=C2C(=O)[C@@]3(O)OC[C@@]4(CCCC(C)(C)C43O)C2(O)C(O)C1 (some centres undefined) 23 µM

Annotate the molecule CCCCCCCCCCCCC(=O)[O-].CCCCCCCCCCCCC(=O)[O-].CCCCCCCCCCCCC(=O)[O-].CCCCCCCCCCCCC(=O)[O-].[Mo+2].[Mo+2] with its measured GI50. 15.1 µM

Please look at this molecule and report its GI50: NCc1ccc(-n2c(-c3nonc3N)nc3cnccc32)cc1 > 25 µM

Return GI50 for the following molecule: N#CC1C(N)=NNC12Nc1ccccc1N2 (centres undefined) 30 µM

Complete the entry with GI50 for Nc1nc(OCc2ccccc2)nc2[nH]ncc12 18.6 µM

Quickly give me recorded GI50 for COc1cnc2c(c1)C(=O)c1c-2n(CCCN2CCCC2)c(=O)c2cc(Cl)ccc12 1.47 µM

Tell me measured GI50 for C/C1=C\CC[C@@](C)(O)[C@@H]2CC3[C@@H](OC(=O)C34CC4)[C@@H](O2)[C@H](C)CCC1 (some centres undefined) please. 55 µM
